- assayed-system: GPR35 (Homo sapiens, UniProt Q9HC97)
- Sequence (Q9HC97 whole entry): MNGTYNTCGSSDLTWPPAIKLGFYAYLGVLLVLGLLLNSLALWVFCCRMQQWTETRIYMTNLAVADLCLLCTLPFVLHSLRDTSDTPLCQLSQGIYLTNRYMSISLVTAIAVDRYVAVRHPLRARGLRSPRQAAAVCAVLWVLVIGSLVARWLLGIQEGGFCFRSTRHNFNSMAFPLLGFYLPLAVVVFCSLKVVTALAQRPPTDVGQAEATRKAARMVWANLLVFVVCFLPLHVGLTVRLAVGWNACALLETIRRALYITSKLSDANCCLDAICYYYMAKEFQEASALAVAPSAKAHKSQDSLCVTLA
- condition-set: HT-29; ML-145 at different doses 10 min before agonist at fixed dose
endpoint: inhibition of the agonist-induced DMR by ML-145 (in words)

1) CCCOC(=O)c1cc(O)c(O)c(O)c1 [propyl gallate]	can be blocked by ML-145
2) Cc1ccc(C(=O)c2cc(O)c(O)c([N+](=O)[O-])c2)cc1 [Tolcapone]	partially inhibited
3) CCCCCCCCOC(=O)c1cc(O)c(O)c(O)c1 [octyl gallate]	can be blocked by ML-145
4) COc1cccc(O)c1O [3-methoxycatechol]	can be blocked by ML-145
5) Oc1cccc(O)c1O [pyrogallol]	can be blocked by ML-145

Measured inhibition of the agonist-induced DMR by ML-145 (in words) of O=C(c1cc(O)c(O)c([N+](=O)[O-])c1)c1ccccc1F [Ro41-0960] : partially inhibited

---

- assayed-system: GPR35 (Homo sapiens)
- experimental-protocol: cell-based
pEC50: −log10 of the molar value.
endpoint: pEC50

1. O=C(O)CCNC(=O)c1ccc(/N=N/c2ccc(O)c(C(=O)O)c2)cc1 [balsalazide]	5.59

1: O=C(O)c1cc(/N=N/c2ccc(S(=O)(=O)Nc3ccccn3)cc2)ccc1O [sulfasalazine]
2: Nc1ccc(O)c(C(=O)O)c1 [Compound 5-ASA, 5-aminosalicylic acid]
Q. // compare measured pEC50 between 1 and 2 ; output the lower one Your answer should be the label of the entry you select.
A. 2

---

- assayed-system: GPR35 (Homo sapiens, UniProt Q9HC97)
endpoint: pEC50
Please express pEC50 as -log10 of the molar concentration.

1. O=C(c1cc(O)c(O)c([N+](=O)[O-])c1)c1ccccc1F	5.06

Attention now turns to another entry.
Entry Cc1ccc(C(=O)c2cc(O)c(O)c([N+](=O)[O-])c2)cc1 under GPR35 (Homo sapiens, UniProt Q9HC97) had pEC50 of 5.13

---

- assayed-system: GPR35 (Homo sapiens, UniProt Q9HC97)
- experimental-protocol: Tango β-arrestin translocation gene reporter assay in U2OS-GPR35-bla cells
- Format: cell-based
- Set-up: TEV protease site (C); Gal4-VP16 transcription factor (C)
- condition-set: U2OS-GPR35-bla cells; β-arrestin translocation; mean ± s.d.; read-out: Potency EC50, Tango
endpoint: EC50 (µM)

Consider the worked cases shown below.
1. O=C(c1cc(O)c(O)c([N+](=O)[O-])c1)c1ccccc1F [Ro41-0960]	54.4
2. Cc1ccc(C(=O)c2cc(O)c(O)c([N+](=O)[O-])c2)cc1 [Tolcapone]	49.2
3. O=C(O)c1cc(/N=N/c2ccc(O)c(C(=O)O)c2)ccc1O [Bi-ASA]	1.7
4. Nc1ccc(O)c(C(=O)O)c1 [Compound 5-ASA, 5-aminosalicylic acid]	545
5. O=C(O)c1cc(/N=N/c2ccc(O)c(C(=O)O)c2)ccc1O (single isomer, unassigned) [olsalazine]	1.26

1: O=C(O)CCNC(=O)c1ccc(/N=N/c2ccc(O)c(C(=O)O)c2)cc1 [balsalazide]
2: O=C(O)c1cc(/N=N/c2ccc(S(=O)(=O)Nc3ccccn3)cc2)ccc1O [sulfasalazine]
Q. Lab log: flag the item ( 1 or 2 ) with the smaller EC50 figure. Lab note: record the label of whichever item you select.
A. 2
(2: 31.3 µM, 1: 46.2 µM)
